The reported numbers originate from patent US20130244929A1.

Target: SpsB (Staphylococcus aureus)
Construct: using a bacterial membrane fraction as a source of SpsB; from tissue
Sequence (P0A070 whole entry): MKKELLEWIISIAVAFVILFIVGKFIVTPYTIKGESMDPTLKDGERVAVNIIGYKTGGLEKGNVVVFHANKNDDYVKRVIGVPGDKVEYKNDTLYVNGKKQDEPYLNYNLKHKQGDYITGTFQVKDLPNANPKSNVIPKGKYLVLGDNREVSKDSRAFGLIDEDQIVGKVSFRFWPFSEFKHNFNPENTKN
Assay: Inhibition of SpsB enzyme activity (fluorescence-based assay, bacterial membrane fraction)
Assay type: biochemical
experimental endpoint: IC50

compound	IC50
CCCc1ccc(-c2ccc(C(=O)NCCC(=O)NC(CCCCN)C(=O)N(C)[C@@H]3C(=O)N[C@@H](C)C(=O)N[C@H](C(=O)O)Cc4cccc(c4)-c4cccc3c4)cc2)cc1.O=C(O)C(F)(F)F (stereo partly drawn) [EXAMPLE 9, trifluoroacetate]	10 to 50 nM
CCCc1ccc(-c2ccc(C(=O)NCCC(=O)NC(CCCCN)C(=O)N(C)[C@@H]3C(=O)N[C@@H](C)C(=O)N[C@H](C(=O)O)Cc4ccc(OC)c(c4)-c4cc3ccc4OC)cc2)cc1.O=C(O)C(F)(F)F (stereo partly drawn) [EXAMPLE 1, trifluoroacetate]	10 to 50 nM
CCCc1ccc(-c2ccc(C(=O)NCCC(=O)NC(CCCCN)C(=O)N(C)[C@@H]3C(=O)N[C@@H](C)C(=O)N[C@H](C(=O)O)Cc4ccc(O)c(c4)-c4cc3ccc4O)cc2)cc1.O=C(O)C(F)(F)F (stereo partly drawn)	10 to 50 nM
CCCCCCCCCc1ccc(-c2ccc(C(=O)NCCC(=O)N[C@@H](CCCCN)C(=O)N(C)[C@@H]3C(=O)N[C@@H](C)C(=O)N[C@H](C(=O)O)Cc4ccc(O)c(c4)-c4cc3ccc4O)cc2C)cc1	< 10 nM
CCCCCCCCCc1ccc(-c2ccc(C(=O)NCCC(=O)N3CC[C@H]3C(=O)N(C)[C@@H]3C(=O)N[C@@H](C)C(=O)N[C@H](C(=O)O)Cc4ccc(O)c(c4)-c4cc3ccc4O)cc2)cc1	< 10 nM

// for each compound in input: emit IC50
1. CCCc1ccc(-c2ccc(C(=O)NCCC(=O)N3CCC[C@@H]3C(=O)N(C)[C@@H]3C(=O)N[C@@H](C)C(=O)N[C@H](C(=O)O)Cc4ccc(OC)c(c4)-c4cc3ccc4OC)cc2)cc1
2. CCCc1ccc(-c2ccc(C(=O)NCCC(=O)N[C@H](CCCCN)C(=O)N(C)[C@@H]3C(=O)N[C@@H](C)C(=O)N[C@H](C(=O)O)Cc4ccc(O)c(c4)-c4cc3ccc4O)cc2)cc1.O=C(O)C(F)(F)F
3. CCCc1ccc(-c2ccc(C(=O)NCCC(=O)NC(CCCCN)C(=O)N(C)[C@@H]3C(=O)N[C@@H](C)C(=O)N[C@H](C(N)=O)Cc4ccc(O)c(c4)-c4cc3ccc4O)cc2)cc1.O=C(O)C(F)(F)F (stereo partly drawn) [EXAMPLE 6, trifluoroacetate]

RESULT:
["> 50 nM", "> 50 nM", "10 to 50 nM"]

Lab note: CCCCCCCCCc1ccc(-c2ccc(C(=O)NCCC(=O)N[C@@H](CCCCN)C(=O)N(C)[C@@H]3C(=O)N[C@@H](C)C(=O)N[C@H](C(=O)O)Cc4ccc(O)c(c4)-c4cc3ccc4O)c(O)c2)cc1 gave IC50 of < 10 nM

----------
Test system: MB 5393 (COL), a methicillin-resistant S. aureus strain
Assay: Determination of minimum and synergistic inhibitory concentration
Type: cell-based
Settings: MRSA COL, presence of imipenem (4 μg/mL), 22 hours
experimental endpoint: SIC

Solved cases (5 shown):
compound	SIC
CCCCCCCCCc1ccc(-c2ccc(C(=O)NCCC(=O)N[C@@H](CCCCO)C(=O)N(C)[C@@H]3C(=O)N[C@@H](C)C(=O)N[C@H](C(=O)O)Cc4ccc(O)c(c4)-c4cc3ccc4O)cc2)cc1	H (H: SIC 0.062-1)
CCCCCCCCCc1ccc(-c2ccc(C(=O)NCCC(=O)N[C@@H](CCCCN)C(=O)N(C)[C@@H]3C(=O)N[C@@H](C)C(=O)N[C@H](C(=O)O)Cc4ccc(O)c(c4)-c4cc3ccc4O)c(O)c2)cc1	G (G: SIC <0.0625)
CCCCc1ccc(-c2ccc(C(=O)NCCC(=O)N[C@@H](CCCCN)C(=O)N(C)[C@@H]3C(=O)N[C@@H](C)C(=O)N[C@H](C(=O)O)Cc4ccc(O)c(c4)-c4cc3ccc4O)cc2)cc1	G (G: SIC <0.0625)
CCCCCCCCCCc1ccc2cc(C(=O)NCCC(=O)N[C@@H](CCCCN)C(=O)N(C)[C@@H]3C(=O)N[C@@H](C)C(=O)N[C@H](C(=O)O)Cc4ccc(O)c(c4)-c4cc3ccc4O)ccc2c1.O=C(O)C(F)(F)F	G (G: SIC <0.0625)
CCCCCCCCCc1ccc(-c2ccc(C(=O)NCCC(=O)N[C@@H](CCCCN)C(=O)N(C)[C@@H]3C(=O)N[C@@H](C)C(=O)N[C@H](C(=O)O)Cc4ccc(O)c(c4)-c4cc3ccc4O)c(F)c2)cc1	G (G: SIC <0.0625)

// for each compound in input: emit SIC
1. CCCc1ccc(-c2ccc(C(=O)NCCC(=O)N[C@@H](CCCN)C(=O)N(C)[C@@H]3C(=O)N[C@@H](C)C(=O)N[C@H](C(=O)O)Cc4ccc(O)c(c4)-c4cc3ccc4O)cc2)cc1
2. CCCc1ccc(-c2ccc(C(=O)NCCC(=O)N3CC(CCN)C[C@H]3C(=O)N(C)[C@@H]3C(=O)N[C@@H](C)C(=O)N[C@H](C(=O)O)Cc4ccc(O)c(c4)-c4cc3ccc4O)cc2)cc1 (stereo partly drawn)
3. CCCCCCCCCc1ccc(-c2ccc(C(=O)NCCC(=O)N[C@@H](CCCCN)C(=O)N(C)[C@@H]3C(=O)N[C@@H](C)C(=O)N[C@H](C(=O)O)Cc4ccc(O)c(c4)-c4cc3ccc4O)cn2)cc1
4. C[C@@H]1NC(=O)[C@@H](N(C)C(=O)[C@H](CCCCN)NC(=O)CCNC(=O)c2ccc(-c3ccc(C(C)(C)C)cc3)cc2)c2ccc(O)c(c2)-c2cc(ccc2O)C[C@@H](C(=O)O)NC1=O
5. CCCc1ccc(-c2ccc(C(=O)NCCC(=O)N[C@@H](CCCCNC=N)C(=O)N(C)[C@@H]3C(=O)N[C@@H](C)C(=O)N[C@H](C(=O)O)Cc4ccc(O)c(c4)-c4cc3ccc4O)cc2)cc1

RESULT:
H (H: SIC 0.062-1)
G (G: SIC <0.0625)
G (G: SIC <0.0625)
H (H: SIC 0.062-1)
H (H: SIC 0.062-1)
